Biological target: fatty acyl CoA: cholesterol acyl transferase (ACAT) (Rattus norvegicus, UniProt O70536)
Construct: The supernatant, containing the microsomal fraction, served as the source of the cholesterol-esterifying enzyme; from tissue; host or cells: rat adrenals (1,000 x g supernatant containing the microsomal fraction)
Sequence (O70536 1-545): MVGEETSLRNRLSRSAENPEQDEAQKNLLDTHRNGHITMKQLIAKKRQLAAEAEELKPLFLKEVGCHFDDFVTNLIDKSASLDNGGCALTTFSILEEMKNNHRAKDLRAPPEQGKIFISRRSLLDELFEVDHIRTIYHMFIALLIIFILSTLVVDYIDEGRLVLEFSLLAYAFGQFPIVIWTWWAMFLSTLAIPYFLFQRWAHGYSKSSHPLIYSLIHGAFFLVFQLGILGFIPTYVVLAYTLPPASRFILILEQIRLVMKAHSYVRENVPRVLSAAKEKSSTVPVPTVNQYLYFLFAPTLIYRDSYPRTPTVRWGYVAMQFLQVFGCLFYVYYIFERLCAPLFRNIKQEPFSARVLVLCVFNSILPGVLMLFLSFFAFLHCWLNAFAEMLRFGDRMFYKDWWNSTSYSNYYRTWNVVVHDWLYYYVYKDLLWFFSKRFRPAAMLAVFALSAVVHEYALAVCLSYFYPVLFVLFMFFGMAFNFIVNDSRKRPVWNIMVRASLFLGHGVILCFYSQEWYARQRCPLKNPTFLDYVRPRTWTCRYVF
Test: Inhibition of enzymatic esterification of cholesterol (ACAT) in rat adrenal supernatant containing the microsomal fraction
Assay type: biochemical
Settings: final concentration of test compound 5.2 μg./ml., percent inhibition of the ACAT enzyme compared to control values
Each entry gets Criterion not met if its inhibition at 5.2 µg/mL stays under 70%, and Criterion met if its inhibition at 5.2 µg/mL is 70% or above.

COMPOUND | CLASSIFICATION
O=C(CC(c1ccc(Cl)cc1)c1ccc(Cl)cc1)Nc1ccc(F)cc1 | Criterion not met
CCOC(=O)c1ccc(NC(=O)CC(c2ccc(C)cc2)c2ccc(C)cc2)cc1 | Criterion met
O=C(C=C(c1ccccc1)c1ccc(Cl)cc1)Nc1ccc(C(=O)O)cc1 | Criterion met
CCOC(=O)c1ccc(NC(=O)CCc2ccc(OC)cc2)cc1 | Criterion not met
CCOC(=O)c1ccc(NC(=O)CCc2ccc(C)cc2)cc1 | Criterion not met
CCOC(=O)c1ccc(NC(=O)CCc2ccc(Cl)cc2)cc1 | Criterion not met
CCOC(=O)COC(=O)c1ccc(NC(=O)C=C(c2ccc(Cl)cc2)c2ccc(Cl)cc2)cc1 | Criterion met
O=C(C=Cc1ccc(Cl)cc1)Nc1ccc(C(=O)O)cc1 [4-(p-chlorocinnamamido)benzoic acid, 4-(p-Chlorocinnamamido)benzoic acid] | Criterion not met
COc1ccc(C(CC(=O)Nc2ccccc2)c2ccc(OC)cc2)cc1 | Criterion met
COc1ccc(C(CC(=O)Nc2ccc(C(=O)O)cc2)c2ccc(OC)cc2)cc1 | Criterion not met
O=C(CCCCCc1ccc(Cl)cc1)Nc1ccc(C(=O)O)cc1 [4-(p-Chlorophenyl)hexanamidobenzoic acid] | Criterion not met
CCOC(=O)c1ccc(NC(=O)C=C(C)c2ccc(Cl)c(Cl)c2)cc1 | Criterion met
CCOC(=O)c1ccc(NC(=O)C=C(c2ccc(C)cc2)c2ccc(C)cc2)cc1 | Criterion met
O=C(C=C(c1ccc(Cl)cc1)c1ccc(Cl)cc1)Nc1ccc(C(=O)O)cc1 | Criterion met
CCOC(=O)c1ccc(NC(=O)C=C(c2ccc(Cl)cc2)c2ccc(Cl)cc2)cc1 | Criterion met

Origin of values: patent US4536346A
